test system: LYPLA1; experiment: serine hydrolase off-target inhibition in mouse brain, late-stage follow-up, selectivity assay for DAGLb inhibitor project, biochemical, gel-based competitive ABPP, mouse brain membrane, set 3 (AID 602321); conditions: gel-based competitive ABPP fluorescence, inhibition, at 1 µM, stronger effect = higher value
endpoint name: inhibition (%)

> print(dat)
                                   molecule  result.number
1  O=C(N1CCCCC1Cc1ccccc1)n1cc(-c2ccc(-c3cccc(CO)c3)cc2)nn1 (stereo not drawn)              0

[1] O=C(c1ccc(-c2ccc(-c3cn(C(=O)N4CCCCC4Cc4ccccc4)nn3)cc2)cc1)N1CCCCC1 (stereo not drawn)
[2] O=C(N1CCCCC1c1ccccc1)n1cc(-c2ccc(-c3cccc(CO)c3)cc2)nn1 (stereo not drawn)
Compare reported inhibition values for 1 and 2 . Which is lower? Respond using the label that marks the chosen record.
1
(1: 0%, 2: 15%)

* * *

test system: LYPLA1; test: serine hydrolase off-target inhibition in mouse brain, late-stage follow-up, selectivity assay for DAGLb inhibitor project, biochemical, gel-based competitive ABPP, mouse brain membrane, set 3 (AID 602321); details: gel-based competitive ABPP fluorescence, at 10 µM, stronger effect = higher value
endpoint name: inhibition (%)

Check out these entries, answers already filled in.
> print(dat)
                                   molecule  result.number
1  O=C(N1CCCCC1c1ccccc1)n1cc(-c2ccc(-c3ccc(CO)cc3)cc2)nn1 (stereo not given)             90
2  O=C(O)c1cccc(-c2ccc(-c3cn(C(=O)N4CCCCC4c4ccccc4)nn3)cc2)c1 (stereo not given)            100
3  O=C(c1cccc(-c2ccc(-c3cn(C(=O)N4CCCCC4c4ccccc4)nn3)cc2)c1)N1CCCCC1 (stereo not given)             98

[a] O=C(c1ccc(-c2ccc(-c3cn(C(=O)N4CCCCC4c4ccccc4)nn3)cc2)cc1)N1CCCCC1 (stereo not given)
[b] O=C(O)c1cccc(-c2ccc(-c3cn(C(=O)N4CCCCC4CCc4ccccc4)nn3)cc2)c1 (stereo not given)
In the pair a and b , the larger recorded inhibition belongs to which? Please indicate the selected item by its label.
a

* * *

tested on: LYPLA1; assay: serine hydrolase off-target inhibition in mouse brain, late-stage follow-up, selectivity assay for DAGLb inhibitor project, biochemical, gel-based competitive ABPP, mouse brain membrane, set 3 (AID 602321); conditions: gel-based competitive ABPP fluorescence, inhibition, at 1 µM, stronger effect = higher value
endpoint name: inhibition (%)

Consider the reported inhibition for these compounds:
> print(dat)
                                   compound  result.number
1  O=C(O)c1cccc(-c2ccc(-c3cn(C(=O)N4CCCCC4c4ccccc4)nn3)cc2)c1 (centres undefined)             85
2  O=C(O)c1cccc(-c2ccc(-c3cn(C(=O)N4CCCCC4CCc4ccccc4)nn3)cc2)c1 (centres undefined)              0
3  O=C(N1CCCCC1c1ccccc1)n1cc(-c2ccc(-c3ccc(CO)cc3)cc2)nn1 (centres undefined)             10

[I] NC(=O)c1ccc(-c2ccc(-c3cn(C(=O)N4CCCCC4c4ccccc4)nn3)cc2)cc1 (centres undefined)
[II] O=C(O)c1ccc(-c2ccc(-c3cn(C(=O)N4CCCCC4CCc4ccccc4)nn3)cc2)cc1 (centres undefined)
For the pair I and II , which entry has the numerically smaller recorded inhibition? Your choice should be expressed through its label.
II
(II: 0%, I: 10%)

* * *

system: LYPLA1; assay: serine hydrolase off-target inhibition in mouse brain, late-stage follow-up, selectivity assay for DAGLb inhibitor project, biochemical, gel-based competitive ABPP, mouse brain membrane, set 3 (AID 602321); details: gel-based competitive ABPP fluorescence, at 10 µM, stronger effect = higher value
endpoint name: inhibition (%)

Check out these entries, answers already filled in.
> print(dat)
                                   compound  measurement.target  endpoint.name  result.number
1  O=C(O)c1cccc(-c2ccc(-c3cn(C(=O)N4CCCCC4Cc4ccccc4)nn3)cc2)c1 (configuration not stated)              LYPLA1     inhibition             15
2  O=C(N1CCCCC1Cc1ccccc1)n1cc(-c2ccc(-c3cccc(CO)c3)cc2)nn1 (configuration not stated)              LYPLA1     inhibition              0

[A] NC(=O)c1ccc(-c2ccc(-c3cn(C(=O)N4CCCCC4c4ccccc4)nn3)cc2)cc1 (configuration not stated)
[B] O=C(O)c1ccc(-c2ccc(-c3cn(C(=O)N4CCCCC4CCc4ccccc4)nn3)cc2)cc1 (configuration not stated)
[C] O=C(c1ccc(-c2ccc(-c3cn(C(=O)N4CCCCC4Cc4ccccc4)nn3)cc2)cc1)N1CCCCC1 (configuration not stated)
Arrange the 3 compounds from largest to smallest inhibition. As an answer, provide the labels arranged in the order called for.
A, B, C
(A: 90%, B: 15%, C: 0%)

* * *

molecular target: UniProt Q9WTL7; assay: serine hydrolase off-target inhibition in mouse brain, late-stage follow-up, selectivity assay for DAGLb inhibitor project, biochemical, gel-based competitive ABPP, mouse brain membrane, set 3 (AID 602321); settings: gel-based competitive ABPP fluorescence, LYPLA2, inhibition, at 1 µM, stronger effect = higher value
Sequence (Q9WTL7 whole entry, looked up): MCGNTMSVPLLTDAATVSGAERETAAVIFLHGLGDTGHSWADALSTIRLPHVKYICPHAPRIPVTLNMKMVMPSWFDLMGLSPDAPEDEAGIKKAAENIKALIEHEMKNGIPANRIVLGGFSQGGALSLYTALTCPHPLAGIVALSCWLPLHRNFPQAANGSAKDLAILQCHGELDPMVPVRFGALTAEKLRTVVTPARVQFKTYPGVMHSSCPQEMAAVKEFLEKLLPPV
endpoint name: inhibition (%)

Consider the reported inhibition for these molecules:
> print(dat)
                                   molecule  result.number
1  O=C(N1CCCCC1Cc1ccccc1)n1cc(-c2ccc(-c3cccc(CO)c3)cc2)nn1 (configuration not stated)              0
2  O=C(N1CCCCC1c1ccccc1)n1cc(-c2ccc(-c3ccc(CO)cc3)cc2)nn1 (configuration not stated)             10
3  O=C(N1CCCCC1c1ccccc1)n1cc(-c2ccc(-c3ccccc3CO)cc2)nn1 (configuration not stated)             20
4  O=C(O)c1cccc(-c2ccc(-c3cn(C(=O)N4CCCCC4c4ccccc4)nn3)cc2)c1 (configuration not stated)             85
5  NC(=O)c1ccc(-c2ccc(-c3cn(C(=O)N4CCCCC4c4ccccc4)nn3)cc2)cc1 (configuration not stated)             10

[1] O=C(c1ccc(-c2ccc(-c3cn(C(=O)N4CCCCC4c4ccccc4)nn3)cc2)cc1)N1CCCCC1 (configuration not stated)
[2] O=C(O)c1cccc(-c2ccc(-c3cn(C(=O)N4CCCCC4CCc4ccccc4)nn3)cc2)c1 (configuration not stated)
Please compare: 1 and 2 . Report which one has the smaller inhibition value. # reply format: chosen label
2
(2: 0%, 1: 15%)

* * *

test system: LYPLA1; assay: serine hydrolase off-target inhibition in mouse brain, late-stage follow-up, selectivity assay for DAGLb inhibitor project, biochemical, gel-based competitive ABPP, mouse brain membrane, set 3 (AID 602321); details: gel-based competitive ABPP fluorescence, inhibition, at 1 µM, stronger effect = higher value
endpoint name: inhibition (%)

Examples with their reported inhibition follow.
> print(dat)
                                   compound  result.number
1  O=C(N1CCCCC1c1ccccc1)n1cc(-c2ccc(-c3ccccc3CO)cc2)nn1 (centres undefined)             20
2  O=C(c1ccc(-c2ccc(-c3cn(C(=O)N4CCCCC4c4ccccc4)nn3)cc2)cc1)N1CCCCC1 (centres undefined)             15

[A] O=C(c1cccc(-c2ccc(-c3cn(C(=O)N4CCCCC4c4ccccc4)nn3)cc2)c1)N1CCCCC1 (centres undefined)
[B] O=C(O)c1cccc(-c2ccc(-c3cn(C(=O)N4CCCCC4Cc4ccccc4)nn3)cc2)c1 (centres undefined)
Consider A and B . Which of these has its inhibition at a higher number? Please indicate the selected item by its label.
A

Source: PubChem BioAssay AID602321
